TGT: COP9 signalosome complex subunit 5 (Homo sapiens)
Sequence (Q92905 whole entry, the tested form may be a part, one chain of several): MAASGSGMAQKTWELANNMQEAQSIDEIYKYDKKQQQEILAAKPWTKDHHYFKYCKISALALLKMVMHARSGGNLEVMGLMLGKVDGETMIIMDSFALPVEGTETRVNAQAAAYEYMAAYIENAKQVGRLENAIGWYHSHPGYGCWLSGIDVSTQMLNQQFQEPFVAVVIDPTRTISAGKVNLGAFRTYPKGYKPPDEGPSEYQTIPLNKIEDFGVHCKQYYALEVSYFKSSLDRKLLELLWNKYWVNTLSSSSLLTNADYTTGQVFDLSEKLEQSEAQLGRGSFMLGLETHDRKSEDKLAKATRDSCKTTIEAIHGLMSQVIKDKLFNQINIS
ASSAY_METHOD_TEXT: Inhibition of N-terminal His6-tagged CSN5 (2 to 257 residues) (unknown origin) transfected in Transetta cells preincubated for 20 mins followed by N-(2-(3-(3',6'-dihydroxy-3-oxo-3H-spiro[isobenzofuran-1,9'-xanthen]-5-yl)thioureido)ethyl)-3-(2-(5-methyl-[1,1'-biphenyl]-2-yl)-1H-pyrrolo[2,3-b]pyridin-3-yl)propanamide probe addition and measured after 1 hr by fluorescence polarization assay
Entries annotated with measured IC50
OUTCOME_MEASURE: IC50 (µM)

COMPOUND: CC(C)=CC[C@@H](OC(=O)C(C)C)C1=CC(=O)c2c(O)ccc(O)c2C1=O
OUTCOME_MEASURE: IC50
CMP: =
RESULT_VALUE: 0.6

COMPOUND: Nc1nc(C(=O)O)c(CCc2cccc3ccccc23)s1
OUTCOME_MEASURE: IC50
CMP: =
RESULT_VALUE: 30.3

COMPOUND: COc1ccc2cc([C@@H](C)c3sc(N)nc3C(=O)O)ccc2c1
OUTCOME_MEASURE: IC50
CMP: =
RESULT_VALUE: 26.9

COMPOUND: CC(C)=CC[C@@H](O)C1=CC(=O)c2c(O)ccc(O)c2C1=O
OUTCOME_MEASURE: IC50
CMP: =
RESULT_VALUE: 0.19

COMPOUND: Nc1nc(C(=O)O)c(CCc2ccc(Br)cc2)s1
OUTCOME_MEASURE: IC50
CMP: =
RESULT_VALUE: 65.5

COMPOUND: CC(C)(C)c1ccc(Cc2sc(N)nc2C(=O)O)cc1
OUTCOME_MEASURE: IC50
CMP: =
RESULT_VALUE: 92.1

COMPOUND: O=C1C=CC(=O)c2c(O)ccc(O)c21
OUTCOME_MEASURE: IC50
CMP: =
RESULT_VALUE: 0.17

COMPOUND: CCCCc1sc(N)nc1C(=O)O
OUTCOME_MEASURE: IC50
CMP: >
RESULT_VALUE: 300

COMPOUND: Nc1nc(C(=O)O)c(CCc2ccc(Cl)cc2Cl)s1
OUTCOME_MEASURE: IC50
CMP: =
RESULT_VALUE: 41.7

COMPOUND: CC(C)c1ccc(Cc2sc(N)nc2C(=O)O)cc1
OUTCOME_MEASURE: IC50
CMP: =
RESULT_VALUE: 111

COMPOUND: Cc1ccc(CCc2sc(N)nc2C(=O)O)o1
OUTCOME_MEASURE: IC50
CMP: =
RESULT_VALUE: 188

COMPOUND: CC(C)(C)c1ccc(CCc2sc(N)nc2C(=O)O)cc1
OUTCOME_MEASURE: IC50
CMP: =
RESULT_VALUE: 19.1

COMPOUND: CC(C)=CCCC1=CC(=O)c2c(O)ccc(O)c2C1=O
OUTCOME_MEASURE: IC50
CMP: =
RESULT_VALUE: 2.51

COMPOUND: CC(=O)O[C@H](CC=C(C)C)C1=CC(=O)c2c(O)ccc(O)c2C1=O
OUTCOME_MEASURE: IC50
CMP: =
RESULT_VALUE: 0.43

COMPOUND: CC(C)c1ccc(CC(C)c2sc(N)nc2C(=O)O)cc1 (stereo not drawn)
OUTCOME_MEASURE: IC50
CMP: =
RESULT_VALUE: 13.5

COMPOUND: CC(C)Cc1sc(N)nc1C(=O)O
OUTCOME_MEASURE: IC50
CMP: >
RESULT_VALUE: 300

COMPOUND: CC(Cc1ccc(C(C)(C)C)cc1)c1sc(N)nc1C(=O)O (stereo not drawn)
OUTCOME_MEASURE: IC50
CMP: =
RESULT_VALUE: 12.6

COMPOUND: CC(C)=CC[C@H](O)C1=CC(=O)c2c(O)ccc(O)c2C1=O
OUTCOME_MEASURE: IC50
CMP: =
RESULT_VALUE: 0.27
